Cited source: the supplement of paper PMC7411640

// reported phospho-S6 immunofluorescence (z-score) for each item listed
System: MDA-MB-468
Assay: phospho-S6 immunofluorescence (DAPI-normalised), per-plate z-score; higher = higher phospho-S6 signal (less pathway suppression)
Settings: co-treatment: vehicle; 24 h
Where a name gives a salt, the structure may show the parent alone.
Enter the number alone.

Guide cases for phospho-S6 immunofluorescence (z-score), answers given:
CC(C)N(CC[C@H](c1ccccc1)c1cc(CO)ccc1O)C(C)C [(R)-5-Hydroxymethyl Tolterodine] (compound 10 µM)	0.11
CN1CC2c3ccccc3Oc3ccc(Cl)cc3C2C1 (centres undefined) [Asenapine (hydrochloride)] (compound 10 µM)	0
CC(CCc1ccccc1)NCC(O)c1ccc(O)c(C(N)=O)c1 (centres undefined) [Labetalol (hydrochloride)] (compound 10 µM)	0.83

Let us move to another entry and its phospho-S6 immunofluorescence (z-score).
Looking up CN1CCN2c3ccccc3Cc3ccccc3C2C1 (centres undefined) [Mianserin (hydrochloride)] (compound 10 µM) , I see its phospho-S6 immunofluorescence (z-score) listed as 1.67
